Molecular target: COX-2 (Homo sapiens, UniProt P35354)
Construct: To induce COX-2, lipopolysaccharide (LPS) from E. coli; endogenous in cells; host or cells: heparinised human whole blood from donors, with COX-2 induced by E. coli LPS
Sequence (P35354 18-604): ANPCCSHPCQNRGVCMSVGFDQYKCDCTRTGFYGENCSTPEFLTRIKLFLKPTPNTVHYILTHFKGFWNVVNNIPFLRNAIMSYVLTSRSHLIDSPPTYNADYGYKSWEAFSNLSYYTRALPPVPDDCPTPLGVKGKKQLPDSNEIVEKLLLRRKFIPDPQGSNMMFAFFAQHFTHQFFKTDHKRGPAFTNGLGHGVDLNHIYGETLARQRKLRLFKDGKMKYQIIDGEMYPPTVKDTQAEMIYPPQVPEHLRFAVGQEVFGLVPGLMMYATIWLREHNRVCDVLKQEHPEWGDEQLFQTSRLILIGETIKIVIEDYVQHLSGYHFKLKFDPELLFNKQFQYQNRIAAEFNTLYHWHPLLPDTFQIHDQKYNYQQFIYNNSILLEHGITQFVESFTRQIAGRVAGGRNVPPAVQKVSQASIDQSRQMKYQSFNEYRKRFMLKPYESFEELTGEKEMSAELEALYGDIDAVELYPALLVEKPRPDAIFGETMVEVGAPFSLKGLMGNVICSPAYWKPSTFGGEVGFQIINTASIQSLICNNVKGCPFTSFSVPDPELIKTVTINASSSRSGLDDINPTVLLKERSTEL
Test: Human COX-2 enzyme activity in human whole blood (LPS-induced, thromboxane B2 EIA)
Assay type: cell-based
Details: 1 μM; human whole blood; LPS induction; read-out: COX-2 Inhibition (% at 1 μM)

{"COMPOUND": "CS(=O)(=O)c1ccc(-c2cc(/C=C\\CCO[N+](=O)[O-])nn2-c2ccccc2)cc1 [Example 11e]", "inhibition at 1 µM / %": 95}
{"COMPOUND": "CS(=O)(=O)c1ccc(-c2cc(C(=O)CCCCCO)nn2C2CCCCC2)cc1 [Example 22c]", "inhibition at 1 µM / %": 25}
{"COMPOUND": "CS(=O)(=O)c1ccc(-c2cc(C(=O)CCCO)nn2-c2ccc(Br)cc2)cc1 [Example 14d]", "inhibition at 1 µM / %": 15}
{"COMPOUND": "CS(=O)(=O)c1ccc(-c2cc(COCCCO)nn2-c2ccc(Cl)cc2)cc1", "inhibition at 1 µM / %": 25}
{"COMPOUND": "CS(=O)(=O)c1ccc(-c2cc(COCCCO)nn2C2CCCCC2)cc1 [Example 16b]", "inhibition at 1 µM / %": 20}
{"COMPOUND": "CC(CCOCc1cc(-c2ccc(S(C)(=O)=O)cc2)n(-c2ccccc2)n1)O[N+](=O)[O-] (centres unmarked) [Example 19c]", "inhibition at 1 µM / %": 20}
{"COMPOUND": "CS(=O)(=O)c1ccc(-c2cc(C(=O)CCCO[N+](=O)[O-])nn2-c2ccc(C(F)(F)F)cc2)cc1 [Example 23e]", "inhibition at 1 µM / %": 35}
{"COMPOUND": "NS(=O)(=O)c1ccc(-c2cc(C(=O)CCCO)nn2C2CCCCC2)cc1 [Example 43g]", "inhibition at 1 µM / %": 0}

* * *

Target: COX-2 (Homo sapiens, UniProt P35354)
Construct: To induce COX-2, lipopolysaccharide (LPS) from E. coli; endogenous in cells; host or cells: heparinised human whole blood from donors, with COX-2 induced by E. coli LPS
Assay: Human COX-2 enzyme activity in human whole blood (LPS-induced, thromboxane B2 EIA)
Assay type: cell-based
Conditions: 10 μM; human whole blood; LPS induction

{"COMPOUND": "NS(=O)(=O)c1ccc(-c2c(-c3ccccc3)noc2COCC(F)(F)C(F)(F)CO)cc1 [Example 33a]", "COX-2 Inhibition (% at 10 μM)": "100%"}
{"COMPOUND": "NS(=O)(=O)c1ccc(-c2c(-c3ccccc3)noc2COCCCO[N+](=O)[O-])cc1 [Example 26b]", "COX-2 Inhibition (% at 10 μM)": "100%"}
{"COMPOUND": "CS(=O)(=O)c1ccc(-c2cc(/C=C/CCO)nn2C2CCCCC2)cc1 [Example 21b]", "COX-2 Inhibition (% at 10 μM)": "25%"}
{"COMPOUND": "NS(=O)(=O)c1ccc(-c2c(-c3ccccc3)noc2COCCO)cc1 [Example 27a]", "COX-2 Inhibition (% at 10 μM)": "90%"}
{"COMPOUND": "CS(=O)(=O)c1ccc(-c2cc(/C=C\\CCO)nn2-c2ccccc2)cc1 [Example 11d]", "COX-2 Inhibition (% at 10 μM)": "30%"}
{"COMPOUND": "COc1ccc(-n2nc(C(=O)CCCO[N+](=O)[O-])cc2-c2ccc(S(C)(=O)=O)cc2)cc1 [Example 24e]", "COX-2 Inhibition (% at 10 μM)": "100%"}
{"COMPOUND": "CS(=O)(=O)c1ccc(-c2cc(/C=C\\CCO)nn2C2CCCCC2)cc1", "COX-2 Inhibition (% at 10 μM)": "70%"}
{"COMPOUND": "CS(=O)(=O)c1ccc(-c2cc(C(=O)CCCCCO[N+](=O)[O-])nn2C2CCCCC2)cc1 [Example 22d]", "COX-2 Inhibition (% at 10 μM)": "30%"}
{"COMPOUND": "NS(=O)(=O)c1ccc(-c2c(-c3ccccc3)noc2COCCO[N+](=O)[O-])cc1 [Example 27b]", "COX-2 Inhibition (% at 10 μM)": "100%"}
{"COMPOUND": "NS(=O)(=O)c1ccc(-c2c(-c3ccccc3)noc2COCC(F)(F)CO[N+](=O)[O-])cc1 [Example 32d]", "COX-2 Inhibition (% at 10 μM)": "85%"}
{"COMPOUND": "CS(=O)(=O)c1ccc(-c2cc(C(=O)CO[N+](=O)[O-])nn2-c2ccccn2)cc1 [Example 35c]", "COX-2 Inhibition (% at 10 μM)": "30%"}
{"COMPOUND": "CS(=O)(=O)c1ccc(-c2cc(CO[N+](=O)[O-])nn2C2CCCCCCC2)cc1", "COX-2 Inhibition (% at 10 μM)": "90%"}
{"COMPOUND": "NS(=O)(=O)c1ccc(-c2c(-c3ccccc3)noc2COCCS(=O)(=O)CCO[N+](=O)[O-])cc1 [Example 37c]", "COX-2 Inhibition (% at 10 μM)": "20%"}
{"COMPOUND": "CS(=O)(=O)c1ccc(-n2nc(/C=C\\CCO)cc2-c2cccnc2)cc1 [Example 25e]", "COX-2 Inhibition (% at 10 μM)": "0%"}
{"COMPOUND": "CS(=O)(=O)c1ccc(-c2cc(CO)nn2C2CCCCCCC2)cc1", "COX-2 Inhibition (% at 10 μM)": "75%"}
{"COMPOUND": "NS(=O)(=O)c1ccc(-c2c(-c3ccccc3)noc2COCCCO)cc1 [Example 26a]", "COX-2 Inhibition (% at 10 μM)": "85%"}
